Each entry below carries its reported viability at 72 h, 2.5e-06 M.
- EXPERIMENTAL_DETAILS: Viability assay against CHO cells (MTT colorimetric assay)
- Type: cell-based, Chinese hamster
- EXPERIMENTAL_SETUP: Chinese hamster, CHO cells, 2.5e-006 M; 72 h; replicates n = 1, 2, 3; read-out: % viable cells
Starred links: 1 amine or outer side, 2 acyl side, 3 side chain; linkers in the order of their positions; H or OH if unused. Positions of bridges follow the written chain, without caps; N, C: chain ends. Non-standard residues stand in square brackets, D forms with d. Residues, ends and D or L forms follow the SMILES beside them. X4 = CC(C)(C)OC(=O)/N=C(\N)N[C@@H]1C[C@@H](C(=O)[*:2])N([*:1])C1; Trp(2-yl) = O=C([C@H](Cc1c([*:3])[nH]c2ccccc12)N[*:1])[*:2]; Pro(trans-4-guanidino) = N=C(N)N[C@H]1CN[C@H](C(=O)O)C1; Ile(4R-OH,5-OH) = C[C@H]([C@H](N)C(=O)O)[C@@H](O)CO; X5 = COC(=O)N[C@@H]1C[C@@H](C(=O)[*:2])N([*:1])C1; X1 = N#C[C@@H]1C[C@@H](C(=O)[*:2])N([*:1])C1
The figure you give is taken to be in %; do not add the unit.

COMPOUND: CC[C@H](C)[C@@H]1NC(=O)CNC(=O)[C@@H]2Cc3c([nH]c4ccccc34)SC[C@H](NC(=O)CNC1=O)C(=O)N[C@@H](CC(N)=O)C(=O)N1C[C@H](NC(=N)N)C[C@H]1C(=O)N[C@@H]([C@@H](C)[C@@H](O)CO)C(=O)N2 [Compound 7, Gdn-Pro-amanitin] (cyclo(CN[Pro(trans-4-guanidino)][Ile(4R-OH,5-OH)][Trp(2-yl)]GIG); thioether 1-5)
viability at 72 h, 2.5e-06 M, %: 90

Noted for CC[C@H](C)[C@@H]1NC(=O)CNC(=O)[C@@H]2Cc3c([nH]c4ccccc34)SC[C@H](NC(=O)CNC1=O)C(=O)N[C@@H](CC(N)=O)C(=O)N1C[C@H](NC(=O)OC)C[C@H]1C(=O)N[C@@H]([C@@H](C)[C@@H](O)CO)C(=O)N2 [Compound 32, MeOCONH-Pro-amanitin] (cyclo(CN[X5][Ile(4R-OH,5-OH)][Trp(2-yl)]GIG); thioether 1-5) : its viability at 72 h, 2.5e-06 M reads 88

Noted for CC[C@H](C)[C@@H]1NC(=O)CNC(=O)[C@@H]2Cc3c([nH]c4ccccc34)SC[C@H](NC(=O)CNC1=O)C(=O)N[C@@H](CC(N)=O)C(=O)N1C[C@H](C#N)C[C@H]1C(=O)N[C@@H]([C@@H](C)[C@@H](O)CO)C(=O)N2 [Compound 4, CN-Pro-amanitin] (cyclo(CN[X1][Ile(4R-OH,5-OH)][Trp(2-yl)]GIG); thioether 1-5) : its viability at 72 h, 2.5e-06 M reads 101

Noted for CC[C@H](C)[C@@H]1NC(=O)CNC(=O)[C@@H]2Cc3c([nH]c4ccccc34)SC[C@H](NC(=O)CNC1=O)C(=O)N[C@@H](CC(N)=O)C(=O)N1C[C@H](N/C(N)=N/C(=O)OC(C)(C)C)C[C@H]1C(=O)N[C@@H]([C@@H](C)[C@@H](O)CO)C(=O)N2 [Compound 9, Boc-Gdn-Pro-amanitin] (cyclo(CN[X4][Ile(4R-OH,5-OH)][Trp(2-yl)]GIG); thioether 1-5) : its viability at 72 h, 2.5e-06 M reads 86
